- Measured Target: CSF-1R tyrosine kinase (Homo sapiens)
- Test Protocol: CSF-1R cell-free autophosphorylation assay
Attribute Measured: IC50 (µM)

I. COc1cccc(Sc2ncnc3cc(OC)c(OC)cc23)c1
II. CCN(c1ccccc1)c1ncnc2cc(OC)c(OC)cc12
Query: Between the entries labelled I and II , which has a larger IC50 value on record? Output the label that corresponds to your choice.
Reply: II

----------
Catalogue of compounds with associated IC50
- Measured Target: CSF-1R tyrosine kinase (Homo sapiens)
- Test Protocol: CSF-1R cell-free autophosphorylation assay

Use these answered entries as a reference point.
Compound	Measured Target	Attribute Measured	Result
COc1cc2ncnc(NCc3ccccc3)c2cc1OC	CSF-1R tyrosine kinase (Homo sapiens)	IC50	≥ 20 µM
COc1cc(Nc2ncnc3cc(OC)c(OC)cc23)cc(OC)c1	CSF-1R tyrosine kinase (Homo sapiens)	IC50	> 100 µM
COc1cc2ncnc(Nc3ccc4ccccc4c3)c2cc1OC	CSF-1R tyrosine kinase (Homo sapiens)	IC50	> 50 µM
COc1cc2ncnc(N(C)c3ccccc3)c2cc1OC	CSF-1R tyrosine kinase (Homo sapiens)	IC50	0.5 µM

Consider now this further compound.
Query: What value of IC50 has been recorded for this entry: COc1cc2ncnc(Nc3cc(OC)c(OC)c(OC)c3)c2cc1OC
Reply: > 100 µM

----------
- Measured Target: p56^Ick tyrosine kinase (Homo sapiens, UniProt P06239)
- Construct: samples containing Ick immuno-precipitated from 2×10^6 cells; endogenous in cells
- Sequence (P06239 whole entry): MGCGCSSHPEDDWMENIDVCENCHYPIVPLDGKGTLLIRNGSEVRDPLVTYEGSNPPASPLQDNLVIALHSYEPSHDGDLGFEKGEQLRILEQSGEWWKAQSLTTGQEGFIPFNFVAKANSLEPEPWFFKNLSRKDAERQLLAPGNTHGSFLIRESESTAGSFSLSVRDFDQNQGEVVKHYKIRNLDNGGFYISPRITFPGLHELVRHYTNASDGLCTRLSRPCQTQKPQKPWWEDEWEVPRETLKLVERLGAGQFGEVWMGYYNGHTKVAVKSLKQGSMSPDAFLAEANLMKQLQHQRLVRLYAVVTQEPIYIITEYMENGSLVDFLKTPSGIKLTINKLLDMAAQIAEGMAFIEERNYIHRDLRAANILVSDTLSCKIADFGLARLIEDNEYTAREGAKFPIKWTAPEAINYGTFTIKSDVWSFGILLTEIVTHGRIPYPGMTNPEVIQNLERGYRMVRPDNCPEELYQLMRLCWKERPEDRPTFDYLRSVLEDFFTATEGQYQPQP
- Test Protocol: Ick kinase cell-free assay (immunoprecipitated from Jurkat lysate)
pIC50: −log10 of the molar value.
Attribute Measured: pIC50

Use these answered entries as a reference point.
Molecule	pIC50
COc1cc2ncnc(NCc3ccccc3)c2cc1OC	4.70
COc1cc2ncnc(Oc3cccc(Cl)c3)c2cc1OC [drawing 19]	6.00

P. COc1cc2ncnc(Oc3cc(OC)c(OC)c(OC)c3)c2cc1OC
Q. COc1cc2ncnc(Sc3cccc(Cl)c3)c2cc1OC
Query: Compare P and Q and name the one whose reported pIC50 is smaller. Output the label that corresponds to your choice.
Reply: P

----------
- Measured Target: p56^Ick tyrosine kinase (Homo sapiens, UniProt P06239)
- Construct: samples containing Ick immuno-precipitated from 2×10^6 cells; endogenous in cells
- Test Protocol: Ick kinase cell-free assay (immunoprecipitated from Jurkat lysate)
Attribute Measured: IC50 (nM)

COc1cc2ncnc(-c3cccc(-c4ccccc4)c3)c2cc1OC 2900

1. COc1cccc(Sc2ncnc3cc(OC)c(OC)cc23)c1
2. COc1cc2ncnc(Nc3cccc4ccccc34)c2cc1OC
Query: Compare 1 and 2 and name the one whose reported IC50 is smaller. Output the label that corresponds to your choice.
Reply: 2

----------
- Measured Target: CSF-1R tyrosine kinase (Homo sapiens, UniProt P07333)
- Sequence (P07333 20-972): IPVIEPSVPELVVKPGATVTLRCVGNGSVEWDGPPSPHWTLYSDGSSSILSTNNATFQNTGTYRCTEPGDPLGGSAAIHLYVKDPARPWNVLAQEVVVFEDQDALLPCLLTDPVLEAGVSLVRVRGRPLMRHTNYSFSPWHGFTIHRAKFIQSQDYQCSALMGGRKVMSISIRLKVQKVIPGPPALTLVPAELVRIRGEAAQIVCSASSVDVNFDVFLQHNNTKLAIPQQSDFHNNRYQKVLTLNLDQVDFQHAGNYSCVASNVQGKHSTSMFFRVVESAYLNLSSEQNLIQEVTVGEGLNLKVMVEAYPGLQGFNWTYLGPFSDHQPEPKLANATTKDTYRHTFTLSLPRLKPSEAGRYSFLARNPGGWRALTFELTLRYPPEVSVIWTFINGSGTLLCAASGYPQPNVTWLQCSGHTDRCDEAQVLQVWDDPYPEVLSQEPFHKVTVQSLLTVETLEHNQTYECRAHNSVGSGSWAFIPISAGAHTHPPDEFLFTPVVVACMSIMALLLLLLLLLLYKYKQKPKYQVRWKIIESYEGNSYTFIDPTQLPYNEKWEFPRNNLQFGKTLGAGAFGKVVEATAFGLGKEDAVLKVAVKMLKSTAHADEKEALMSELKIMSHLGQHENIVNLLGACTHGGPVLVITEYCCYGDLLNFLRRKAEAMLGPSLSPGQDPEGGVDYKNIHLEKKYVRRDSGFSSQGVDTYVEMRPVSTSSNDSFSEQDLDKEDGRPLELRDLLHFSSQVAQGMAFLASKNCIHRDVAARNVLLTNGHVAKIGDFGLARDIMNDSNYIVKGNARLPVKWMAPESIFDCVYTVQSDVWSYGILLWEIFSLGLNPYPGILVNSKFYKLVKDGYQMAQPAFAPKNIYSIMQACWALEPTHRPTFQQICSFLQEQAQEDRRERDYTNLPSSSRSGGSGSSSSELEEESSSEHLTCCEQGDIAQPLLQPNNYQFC
- Test Protocol: CSF-1R cell-free autophosphorylation assay
Attribute Measured: IC50 (µM)

A. COc1cc2ncnc(Sc3cccc(Cl)c3)c2cc1OC
B. COc1cc2ncnc(-c3cccc(-c4ccccc4)c3)c2cc1OC
C. COc1cc2ncnc(-c3ccsc3)c2cc1OC
Query: Write the entries in order, lowest recorded IC50 first. Provide the labels, sequenced as the question asks.
Reply: A, C, B

----------
- Measured Target: CSF-1R tyrosine kinase (Homo sapiens, UniProt P07333)
- Test Protocol: CSF-1R cell-free autophosphorylation assay
pIC50: −log10 of the molar value.
Attribute Measured: pIC50

Compound	Result
COc1cc2ncnc(Oc3cc(OC)c(OC)c(OC)c3)c2cc1OC	< 4.30
COc1cc2ncnc(Oc3cccc(Cl)c3)c2cc1OC [drawing 19]	< 4.30
COc1cc2ncnc(Nc3cccc4ccccc34)c2cc1OC	< 4.30

Query: Find pIC50 (CSF-1R tyrosine kinase (Homo sapiens, UniProt P07333)) for the entry COc1ccc(Nc2ncnc3cc(OC)c(OC)cc23)cc1OC
Reply: < 4.70
